Reference source for all entries: patent US20210403579A1

In this section we review reported kon values for a set of binders.
# studySystem: T1, Human ST2 (human, UniProt Q01638 19-328, limits assumed)
# T1 construct: also called human ST2 protein; Interleukin 1 receptor-like 1
# T1 sequence (looked up): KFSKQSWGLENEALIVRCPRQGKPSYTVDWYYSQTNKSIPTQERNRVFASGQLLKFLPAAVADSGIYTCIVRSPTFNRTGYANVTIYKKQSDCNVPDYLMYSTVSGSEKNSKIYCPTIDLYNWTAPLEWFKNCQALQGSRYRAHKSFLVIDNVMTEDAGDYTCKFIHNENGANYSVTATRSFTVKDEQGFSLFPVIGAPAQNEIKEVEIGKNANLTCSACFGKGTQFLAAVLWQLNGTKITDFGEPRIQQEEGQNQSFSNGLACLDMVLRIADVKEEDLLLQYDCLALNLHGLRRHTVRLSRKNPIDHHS
# test: SPR (Carterra), antibody immobilized, ST2 analyte
# unit: M⁻¹ s⁻¹ | format: bare number

Human ST2 IgG1 Antibody 80 (antibody, V domains shown, IgG1; also called ST2 Antibody 80) VH: QVQLVQSGAEVKKPGSSVKVSCKASGGTFSSYAISWVRQAPGQGLEWMGGIIPIFGTANYAQKFQGRVTITADESTSTAYMELSSLRSEDTAVYYCARVMVAGTGYYFDYWGQGTLVTVSS VL: DIVMTQSPLSLPVTPGEPASISCRSSQSLLHSNGYNYLDWYLQKPGQSPQLLIYGASSLQSGVPDRFSGSGSGTDFTLKISRVEAEDVGVYYCMQGLHTPPTFGQGTKLEIKR : 67000

Shifting focus to the binder that follows.
Problem: Quick one: kon of Human ST2 IgG1 Antibody 75 (antibody, V domains shown, IgG1; also called ST2 Antibody 75) VH: EVQLLESGGGLVQHGGSLRLSCAASGFTFSSYWMSWVRQAPGKGLEWVSSISSSSSYIYYADSVKGRFTISRDNSKNTLYLQMNSLRAEDTAVYYCARDIAGYFDLWGRGTLVTVSS VL: DIQMTQSPSSLSASVGDRVTITCQASQSISSYLNWYQQKPGKAPKLLIYAASSLQSGVPSRFSGSGSGTDFTLTISSLQPEDFATYYCQQGYLTPYTFGQGTKLEIKR ?
Solution: 120000
